- ASSAY_EXPLANATION: Pharmacokinetics in rats
- Type: in vivo
- CONDITION_DESCRIPTION: rat, plasma, po, 3 mg/kg
MEASURED_PARAMETER: AUC(0-t) (ng·h/mL)
Answers are plain numbers, in ng·h/mL.

Input line: Find the recorded AUC(0-t) belonging to Nc1ccc(/C=C/C(=O)NCc2cc3cc(-c4ccc(C(=O)N5CCC(F)(F)CC5)cc4)cc(-c4ccc(F)cc4)c3o2)cn1 and report it.
Output line: 55500
